# System: PPARg DBDmut:RXRa IVT, anti-PPARg (DBD mutation: PPARg1 K132A/R137A, NR concentration 270 nM, RXRa partner concentration 90 nM)
# assay.procedure: PBM binding z-score (relative to random genomic background probes); higher = stronger binding; sequences stand for … in GC…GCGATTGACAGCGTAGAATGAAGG
Quick reference for PBM binding z-score among some sequences

| polymer.sequence | PBM binding z-score |
| --- | --- |
| CAAAATAGGTCAAAGGTCAAAGTCGAGCCAACCA | 3.03 |
| TAGCCTAGTTCATGCGGGCCAGTATAGTGTCGGC | -0.253 |
| CCTAGTTGTTCAGGAGGTCACACACCGGATATGA | 1.15 |
| CGTCCAAGGTCAAAGGTCAATGAAGAGATGACGG | 0.925 |
| TAGCCTAGGTCATTCAGGGGCCAGCATAGAAAGC | 0.63 |
| TACCCTAGGTCATGGGCCAGTATACCACGCGAAC | 1.09 |
| GCTGCTAGGTCAACTGATGGTCAACTAAAGCTCG | -0.672 |
| CGTCAAAGATCAAGGTAACGTAACAGAAAGCAGC | 0.647 |
| AATACGGGGTCACTAGGCCAGAGTAGGTACGAAT | 1.49 |
| CCTACTGGGCCTAAGGTCATTGATTCCAATGCTC | -0.629 |
| CGAACTAGGTCACCCAGGACAGTGAATACATTGA | 3.12 |
| CGAACTAGGTCATCCAGGTCAGTGAATACATTGA | 6.69 |
| CGAACTAGGTCATTGACAGGACAGTGGATAGTAA | 2.72 |
| CGTCAAAGTTCAACTAAGGTTACGTAAAGCACGC | 1.54 |
| ATCGAAAGGTCGACCAGGTGAGTATACACCGTTT | 0.944 |
| GGAACGAGGGCAAAGTTCATAGCATCTGTCGACG | 0.354 |
| CGTCAAACTTCAACTAAGGTAACGTAAAGCACGC | 0.469 |
| TCTCGGAGGACACTAAAGGTCAGAGCTCGACATC | -0.114 |
| TCTCGGAGGACACAAAGGTCAGAGCTTTCCAGAG | -0.467 |
| CCTGCTAGGTCAAAGGTCAGCTAAAGCAGCTCGC | 3.16 |
| AATAAAGGGTCATCGTAGGCCAGAGTACGCACAG | 1.5 |
| CGAACTAGGTCATCCAGGACCGTGAATACATTGA | 1.32 |
| TGTCAAAGTTCAAAGGTGACGTAAGTATCCACAC | 1.7 |
| GGAACGAGGTCATTCGAGTTGATAGCATGGCGAT | 0.79 |
| ATATGTAGGATAGCTGGGGTCATTCAGACTAGGC | 0.891 |
| CCTTACGGGTCCCTCCAGGTTATAGCATCGGAGT | -1.12 |
